Hello, the source for this data is paper PMC4850381, in case you need it.

target.or.system: T1, tree shrew CRHR1 extracellular domain (tree shrew)
T1 chain: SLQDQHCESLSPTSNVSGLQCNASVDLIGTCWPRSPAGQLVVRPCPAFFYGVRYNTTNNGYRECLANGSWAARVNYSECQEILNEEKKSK
procedure.summary: SPR
reported.metric: Kd (nM)
Numbers only; they are read as nM.

Note to self: Kd recorded for SEEPPISLDLTFHLLREVLEMARAEQLAQQAHSNRKLMEMI [tree shrew corticotrophin-releasing hormone (CRH) peptide] was 1760

The recorded Kd for entry SEEPPISLDLTFHLLREVLEMARAEQLAQQAHSNRKLMEIIGK [human corticotrophin-releasing hormone (CRH) peptide] equals 1460
